Reference for the values: ChEMBL document CHEMBL5058577

- System: Fibroblast
- test.summary: Multiplex assay against human fibroblast
- Type: toxicity, cell-based
- setup.conditions: 24 h, 10 µM, compound concentration 10 uM, replicate 1
measurement.label: Population Apoptotic (%)

Consider the worked cases shown below.
> print(dat)
                                   molecule  subject.of.test  value.reported
1  O=C1[C@H](Cc2ccc(O)cc2)N2C(=O)CCN(C(=O)NCc3ccccc3)[C@H]2CN1Cc1cccc2ccccc12       Fibroblast             44%
2  O=C(NCCN1CCC(n2c(=O)[nH]c3cc(Cl)ccc32)CC1)c1ccc(F)cc1 [HALOPEMIDE]       Fibroblast             67%
3  CC(=O)Nc1cccc2c1c(Sc1ccc(Cl)cc1)c(C)n2CC(=O)O [AZD1981]       Fibroblast             41%
4  CCCCC(=O)N(Cc1ccc(-c2ccccc2-c2nnn[nH]2)cc1)[C@H](C(=O)O)C(C)C       Fibroblast             48%
5  CC(/C=C1\SC(=S)N(CCCC(=O)Nc2ccc(C(=O)O)c(O)c2)C1=O)=C\c1ccccc1       Fibroblast             66%
6       O=C(CCCc1ccccc1)Nc1nc2ccccc2c(=O)s1       Fibroblast             46%

List Population Apoptotic (%) for every entry below, keeping the order given.
1. CC(C)c1noc(N2CCC(COc3ccc(-c4ccc(S(C)(=O)=O)cc4)nc3)CC2)n1 [GSK-1292263]
2. CCCCC1=NC2(CCCC2)C(=O)N1Cc1ccc(-c2ccccc2-c2nnn[nH]2)cc1 [IRBESARTAN]
3. NCCc1cn(S(=O)(=O)c2c(Cl)nc3sccn23)c2ccccc12.O=C(O)C(=O)O

result:
1: 52%; 2: 56%; 3: 77%
